Give measured half-life for each item. Keep answers brief.
Experiment: t1/2 (min) in equine serum
Assay type: ADME, organism-based, Equus caballus
Settings: horse
# answer = value followed by unit

Give half-life for CCCCCC(CC)OC(=O)c1cnc(C)cn1 (stereo unspecified)
0.0167 h

Note down half-life recorded for `COC(=O)c1cnc(C)cn1`
20 h

Give recorded half-life. `COC(=O)c1cnc(OC)cn1`
5 h

Name the recorded half-life of the item `COC(=O)c1cnc(F)cn1` in your answer.
3.7 h

Supply recorded half-life for `CC(C)COC(=O)c1cnccn1` here.
3.45 h

Provide only the value of recorded half-life for `COC(=O)c1cnccn1`
7.83 h

Provide one value: measured half-life of `CCCCCCOC(=O)c1cnc(F)cn1`
0.0467 h

Output half-life of `CCCOC(=O)c1cnc(C)cn1`
2.07 h

Give half-life for CCCCCCC(C)OC(=O)c1cnc(F)cn1 (stereo unspecified)
0.115 h

Given CCC(C)OC(=O)c1cnccn1 (stereo unspecified) , respond with its half-life.
0.685 h

Dear colleague, please send me the reported half-life for `O=C(OCc1ccccc1)c1cnccn1` when you can.
0.0717 h
